Target: Cholecystokinin receptor type A (Rattus norvegicus, UniProt P30551)
Sequence (P30551 whole entry): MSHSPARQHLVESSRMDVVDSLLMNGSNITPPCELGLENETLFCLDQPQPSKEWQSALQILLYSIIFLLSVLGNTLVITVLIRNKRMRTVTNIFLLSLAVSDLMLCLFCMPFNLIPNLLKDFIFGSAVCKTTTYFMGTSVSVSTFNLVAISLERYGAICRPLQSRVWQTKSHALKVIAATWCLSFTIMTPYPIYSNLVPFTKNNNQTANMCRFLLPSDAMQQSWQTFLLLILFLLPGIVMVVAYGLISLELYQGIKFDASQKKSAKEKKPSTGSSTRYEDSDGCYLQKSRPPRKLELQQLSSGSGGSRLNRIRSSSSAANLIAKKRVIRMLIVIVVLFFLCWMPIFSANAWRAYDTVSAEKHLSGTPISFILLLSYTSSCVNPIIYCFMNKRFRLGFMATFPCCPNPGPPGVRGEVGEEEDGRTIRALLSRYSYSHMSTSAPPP
Assay: Half-maximal inhibition of [125I]CCK-33 binding to cholecystokinin A receptor from rat pancreatic tissue
One threshold, 100 nM, splits the recorded IC50 values: lower ones are 1, equal or higher ones are 0.

Inquiry: Report whether reported IC50 is lower than 100 nM (strictly) for CCCCCc1ccc(C(=O)N[C@H]2N=C(c3ccccc3F)c3ccccc3N(C)C2=O)cc1
Reply text: 0

Inquiry: Report whether reported IC50 is lower than 100 nM (strictly) for CN1C(=O)[C@H](NC(=O)[C@H](N)Cc2ccccc2)N=C(c2ccccc2)c2ccccc21
Reply text: 0

Inquiry: Report whether reported IC50 is lower than 100 nM (strictly) for CN1C(=O)C(N(C)C(=O)c2ccccc2Cl)N=C(c2ccccc2)c2ccccc21 (centres undefined)
Reply text: 0

----------
Target: Cholecystokinin receptor type A (Rattus norvegicus, UniProt P30551)
Sequence (P30551 whole entry): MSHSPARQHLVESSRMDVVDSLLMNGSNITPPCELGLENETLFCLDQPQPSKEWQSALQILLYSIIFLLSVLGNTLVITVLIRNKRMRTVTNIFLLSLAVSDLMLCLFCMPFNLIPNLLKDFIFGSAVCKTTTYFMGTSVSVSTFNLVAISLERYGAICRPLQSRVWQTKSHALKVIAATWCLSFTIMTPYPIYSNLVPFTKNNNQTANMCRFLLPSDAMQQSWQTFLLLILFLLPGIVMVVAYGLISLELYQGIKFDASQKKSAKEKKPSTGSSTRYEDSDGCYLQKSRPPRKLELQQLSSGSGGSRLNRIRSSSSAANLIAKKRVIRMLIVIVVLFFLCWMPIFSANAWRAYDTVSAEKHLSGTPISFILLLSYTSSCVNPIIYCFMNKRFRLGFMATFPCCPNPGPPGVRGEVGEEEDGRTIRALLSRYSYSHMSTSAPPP
Test: Half-maximal inhibition of [125I]CCK-33 binding to cholecystokinin A receptor from rat pancreatic tissue
readout type: log10(IC50) (log10 of the value in nM)
Record value = log10 of IC50 given in nM.

Sample records with log10(IC50):
CN1C(=O)[C@@H](NC(=O)c2ccc(Br)cc2)N=C(c2ccccc2)c2ccccc21; 0.46
CCCc1ccc(C(=O)NC2N=C(c3ccccc3)c3ccccc3NC2=O)cc1 (stereo not given); 3.56
CN1C(=O)C(NC(=O)[C@@H](Cc2ccccc2)NC(=O)OC(C)(C)C)N=C(c2ccccc2)c2ccccc21 (stereo not given in full); 2.85

Inquiry: For O=C(NC1N=C(c2ccccc2F)c2ccccc2NC1=O)c1cc2cc(Br)ccc2[nH]1 (stereo not given) , what is its reported log10(IC50)?
Reply text: 2.08

Inquiry: For CN1C(=O)C(NC(=O)c2ccc(Cl)cc2)[N+]([O-])=C(c2ccccc2F)c2ccccc21 (stereo not given) , what is its reported log10(IC50)?
Reply text: 1.82

Ref: ChEMBL document CHEMBL1124015
